# MEASURED TARGET: DRB1*0405 (DR4w15) (Homo sapiens, UniProt P01903+P01911, A100R/A169T/D86S/F76Y/I96L/K127E/L162R/M171V/N62H/P40V/Q125Y/R42H/S133A/S149N/S66Y/V115G/V209L/W38E)
# TEST PROTOCOL: biochemical
Where no end group is shown, it is not given here.
MEASURED ATTRIBUTE: pIC50
Notebook: values listed as pIC50 are -log10 of the concentration (mol/L).

1) DWVMAIFGVNPTVAEGF [compound 114]	7.04
2) WKHIRLECVLMYKAR [compound 108]	7.15
3) WKHMRLECAIYYKAR [compound 91]	6.25

Now examine the next entry.
[ask] Quick one: give measured pIC50 for NGWFYVEAVIDRQTG [compound 106]
[reply] 6.75

====

# System: CD8+ spleen cells of HLA transgenic mice (HLA-A01/Kb, F1 HLA-A02/KbxBalb/c, HLA-A11/Kb, HLA-A24/Kb)
# TEST PROTOCOL: Immunogenicity after HPV DNA construct immunization, direct ex vivo IFNγ ELISPOT
# Assay type: in vivo, mouse
# ASSAY CONDITIONS: HLA-A24 epitopes, HLA-A24/Kb mice, DNA construct ICCG6150; median of mouse pools
MEASURED ATTRIBUTE: Delta SFC/10^6 cells (SFC/10^6 cells)
Entry rule: numbers only, all in SFC/10^6 cells.

Use these answered entries as a reference point.
1. 144 (LYGVSFTEL; Human papillomavirus type 16-derived epitope) [compound 144]	1
2. 140 (PYAVCDKCL; Human papillomavirus type 16) [compound 140]	1
3. 143 (LYNLLIRWL; Human papillomavirus type 18-derived epitope) [compound 143]	1
4. 139 (CYSLYGTTL; Human papillomavirus type 16) [compound 139]	1
5. 141 (RFHNIRGRW; Human papillomavirus type 16) [compound 141]	1

[ask] Let me know recorded Delta SFC/10^6 cells for 145 (CYSVYGTTL; Human papillomavirus type 16-derived epitope) [compound 145] , thanks.
[reply] 90

====

# MEASURED TARGET: HLA A3101 (Homo sapiens, UniProt P04439, A270S/D185E/E176V/E277Q/F33T/G231S/G80R/H175R/I121M/I218V/I322F/K168Q/L300P/L318F/M331R/P217A/Q94H/R138Q/T323A/T345S/T97I/V358M)
# TEST PROTOCOL: HLA class I competition binding assay using soluble HLA
Where no end group is shown, it is not given here.
Each record is given true (1) if its reported IC50 is strictly below 40 nM. Records at or above 40 nM are given false (0).

Solved cases below.
1) AATKYPLLK [compound 17]	false (0)
2) SVYGTTLER [compound 60]	false (0)
3) FVVYRDSIPK [compound 36]	true (1)
4) ATTPIIHLK [compound 58]	true (1)
5) RQMNMSQWIK [compound 79]	false (0)

[ask] Criterion: IC50 strictly below 40 nM. Is it met by VVLLLVRYK [compound 12] ?
[reply] true (1)

[ask] Bench note: check whether RTEVYQFAFR [compound 82] shows IC50 below 40 nM
[reply] true (1)

[ask] Could you please tell me whether IC50 recorded for TVSATQLVK [compound 33] is less than 40 nM?
[reply] false (0)

[ask] For STAAALYWYR [compound 56] , is the recorded IC50 below the cut-off of 40 nM?
[reply] true (1)

[ask] Is IC50 of SVYGETLEK [compound 83] strictly below 40 nM?
[reply] false (0)

[ask] Does the reported IC50 of the following sequence sit strictly below 40 nM? ATLQDIVLH [compound 38]
[reply] false (0)

[ask] Regarding DSVYGDTLER [compound 37] , kindly confirm whether its IC50 is beneath 40 nM.
[reply] false (0)

[ask] Decide: IC50 of KVSEFRWYRY [compound 59] strictly below 40 nM?
[reply] true (1)

[ask] Item KSLFGMSLMK [compound 15] : IC50 beneath 40 nM, strictly?
[reply] false (0)

====

Form field: log10 IC50 (one value per entry).
# MEASURED TARGET: HLA A2302 (Homo sapiens, UniProt P04439, D101N/D140Y/D185E/E176V/E190D/F33S/G103R/G107R/H175R/I119L/I121M/I306V/K168Q/K335N/L105A/L180W/L300P/N151K/N90K/P307H/Q86E/Q94H/R106L/R138H/R89G/T104I/T345S/V100E/W191G/Y123F)
# TEST PROTOCOL: HLA class I competition binding assay using soluble HLA
Where no end group is shown, it is not given here.
Recall that a logarithmic scale is used here: each number is log10 of IC50 in nM.

1) LYNLLIRCF [compound 44]	1.00

[ask] # return recorded log10 IC50 for entry YYITETGIW [compound 85]
[reply] 0.30

[ask] Tell us which log10 IC50 value is on record for FYSKVSEFRW [compound 65]
[reply] 0.94

[ask] Give log10 IC50 for the following sequence: VYDFAFRDLCI [compound 20]
[reply] 0.95

[ask] Answer with the recorded log10 IC50 of VYQFAFKDL [compound 87] only.
[reply] 0.04

[ask] Output log10 IC50 of VYGTTLEKL [compound 66]
[reply] 0.91

[ask] Identify measured log10 IC50 associated with VFTFPHAFPF [compound 84]
[reply] 1.20

[ask] Please report the measured log10 IC50 for LYGVSFSEL [compound 18]
[reply] 0.86

====

# MEASURED TARGET: HLA A0301 (Homo sapiens)
# Construct: endogenous in cells
# TEST PROTOCOL: HLA class I competition binding assay using soluble HLA
Where no end group is shown, it is not given here.
MEASURED ATTRIBUTE: pIC50
# reply with the number alone; pIC50 is -log10 of concentration in mol/L

1) VVLLLVRYK [compound 12]	8.20

[ask] Item QVVPAYNISK [compound 35] : provide pIC50
[reply] 6.51

[ask] Consider the sequence DSVYGDTLER [compound 37] . State its measured pIC50.
[reply] 6.71

[ask] Please report the measured pIC50 for ATLQDIVLH [compound 38]
[reply] 6.68

[ask] Determine from records and report pIC50 for STAAALYWYR [compound 56]
[reply] 6.70

[ask] Identify the reported pIC50 for the following entry. KSLFGMSLMK [compound 15]
[reply] 8.41

[ask] Note down pIC50 recorded for SVYGTTLER [compound 60]
[reply] 7.66

[ask] Note pIC50 for the sequence shown: VTTRYPLLR [compound 81]
[reply] 6.80

[ask] Report pIC50, nothing else, for this sequence: AVMCRHYKR [compound 78]
[reply] 6.51

====

Listed sequences paired with reported pIC50
# MEASURED TARGET: HLA A3301 (Homo sapiens, UniProt P04439, A270S/D185E/E176V/E277Q/E87N/F33T/G231S/H175R/I121M/I218V/I322F/K168Q/K210R/L300P/L318F/M331R/P217A/Q86R/Q94H/R138Q/T323A/T345S/T97I/V358M/Y195H)
# TEST PROTOCOL: HLA class I competition binding assay using soluble HLA
Where no end group is shown, it is not given here.
Units for pIC50: none; it is -log10 of a concentration expressed in mol/L.

Below: 5 sequences and their reported pIC50.
1) KVSEFRWYRY [compound 59]	6.47
2) STAAALYWYK [compound 13]	6.89
3) SVICFVNSK [compound 16]	7.29
4) VVLLLVRYK [compound 12]	8.21
5) STAAALYWYR [compound 56]	7.33

[ask] Write down pIC50 measured for item FVVYRDSIPK [compound 36]
[reply] 6.33

[ask] Find the measured pIC50 of STWHWTGCNK [compound 80] and report it.
[reply] 6.37

[ask] Give reported pIC50 value for SVYGTTLER [compound 60]
[reply] 6.07

[ask] Read the entry RTEVYQFAFR [compound 82] and write its reported pIC50.
[reply] 6.16

====

Ratio values by entry
# System: CD8+ spleen cells of HLA transgenic mice (HLA-A01/Kb, F1 HLA-A02/KbxBalb/c, HLA-A11/Kb, HLA-A24/Kb)
# TEST PROTOCOL: Immunogenicity after HPV DNA construct immunization, direct ex vivo IFNγ ELISPOT
# Assay type: in vivo, mouse
# ASSAY CONDITIONS: HLA-A24 epitopes, HLA-A24/Kb mice, DNA construct ICCG6149; median of mouse pools

# count of solved cases: 5
1. 139 (CYSLYGTTL; Human papillomavirus type 16) [compound 139]	1.0
2. 144 (LYGVSFTEL; Human papillomavirus type 16-derived epitope) [compound 144]	1.0
3. 140 (PYAVCDKCL; Human papillomavirus type 16) [compound 140]	1.1
4. 145 (CYSVYGTTL; Human papillomavirus type 16-derived epitope) [compound 145]	1.4
5. 143 (LYNLLIRWL; Human papillomavirus type 18-derived epitope) [compound 143]	1.0

[ask] Return Ratio for the following substance: 141 (RFHNIRGRW; Human papillomavirus type 16) [compound 141]
[reply] 1.1
